Assay: in vitro
Conditions: human, hela cells, % viability
Mark 1 only for viability at 28.5 h, 10 µM values smaller than 90%; exact matches and larger values are 0.

Given CCN(CC)CCCNC(=O)N1CCCC(CO)C1 (centres unmarked) [CBK156061] , is recorded viability at 28.5 h, 10 µM strictly lower than 90%?
0

Given COc1ccc(Nc2cc(-c3ccsc3)ncn2)cc1OC [CBK090820] , is recorded viability at 28.5 h, 10 µM strictly lower than 90%?
0

Given CCn1cc(C2CN(S(=O)(=O)c3cccc(COC)c3)CCO2)cn1 (centres unmarked) [CBK304222] , is recorded viability at 28.5 h, 10 µM strictly lower than 90%?
0

Given Cc1ccc(-c2nnc(CNC(=O)Cc3ccccc3Cl)o2)s1 [CBK284648] , is recorded viability at 28.5 h, 10 µM strictly lower than 90%?
1

Given Cc1ccc(C(=O)NCCN2CCOCC2)c(NCCCn2ccnc2)n1 [CBK076371] , is recorded viability at 28.5 h, 10 µM strictly lower than 90%?
0

Given Cn1cnc2ccc(NC(=O)CC3CCN(C(=O)CC4CCCCC4)CC3)cc21 [CBK285961] , is recorded viability at 28.5 h, 10 µM strictly lower than 90%?
1

---

Test: in vitro
Conditions: human, hela cells, % viability
Mark Y only for viability at 28.5 h, 10 µM values smaller than 90%; exact matches and larger values are N.

Given Cc1ccccc1OCCn1c(=N)n(CC(C)C)c2ccccc21 [CBK265392B] , is recorded viability at 28.5 h, 10 µM strictly lower than 90%?
N

Given "O=S(=O)(Nc1cccc2[nH]ccc12)c1sc(Cl)cc1Br" , is recorded viability at 28.5 h, 10 µM strictly lower than 90%?
Y

Given "Nc1ncnc(NCCc2ccc(S(N)(=O)=O)cc2)c1[N+](=O)[O-]" , is recorded viability at 28.5 h, 10 µM strictly lower than 90%?
Y

Given "CCCc1ccc(S(=O)(=O)Nc2c(C(=O)OC)sc3ncccc23)cc1" , is recorded viability at 28.5 h, 10 µM strictly lower than 90%?
Y

Given "Cc1ccc(Nc2c([N+](=O)[O-])nn(-c3ccccc3)[n+]2[O-])cc1F" , is recorded viability at 28.5 h, 10 µM strictly lower than 90%?
N

Given "CCn1c2ccccc2c2cc(NC(=O)CSc3nnc(-c4ccoc4C)o3)ccc21" , is recorded viability at 28.5 h, 10 µM strictly lower than 90%?
N

Given COCCOC(=O)N1CCC(C(=O)NC(c2ccccc2)c2ccsc2)CC1 (centres unmarked) , is recorded viability at 28.5 h, 10 µM strictly lower than 90%?
N

Given "Cc1ccc(C(C)C)c(OCC(=O)Nc2cc(-c3nc4ccccc4[nH]3)ccc2C)c1" , is recorded viability at 28.5 h, 10 µM strictly lower than 90%?
Y

Given "CC(=O)NS(=O)(=O)c1ccc(-c2ccc(/C=C(/C#N)c3nc4ccc(C)cc4[nH]3)o2)cc1" , is recorded viability at 28.5 h, 10 µM strictly lower than 90%?
N

---

Assay: in vitro
Details: human, hela cells, % viability
I'd appreciate it if you could supply viability at 28.5 h, 10 µM values for the items below.
Give your result in % as a bare value.

viability at 28.5 h, 10 µM recorded for this molecule, "NC(=O)C1(N2CCCCC2)CCN(C(=S)Nc2ccc(F)c(Cl)c2)CC1" , is 97.4

viability at 28.5 h, 10 µM recorded for this molecule, Cc1nc(CCNC(=O)C2CC(c3cccc(F)c3)=NO2)cs1 (stereo not shown) , is 106

viability at 28.5 h, 10 µM recorded for this molecule, "N#Cc1cccc(CN2C[C@H](O)C[C@H]2c2nc(-c3ccc4c(c3)OCO4)no2)c1" , is 90

viability at 28.5 h, 10 µM recorded for this molecule, CCC(c1c(O)c2ccccc2oc1=O)c1cccc2ccccc12 (stereo not shown) , is 102

viability at 28.5 h, 10 µM recorded for this molecule, "Cc1sc2nc(C(C)C)n(C3CCNCC3)c(=O)c2c1C" , is 100

viability at 28.5 h, 10 µM recorded for this molecule, Cc1cc(S(=O)(=O)N2CCN(CCO)C(C)C2)sc1Cl (stereo not shown) , is 91.4

viability at 28.5 h, 10 µM recorded for this molecule, O=C(NC(c1ccccc1)c1ccsc1)C1CCN(C2Cc3ccccc3C2)CC1 (stereo not shown) , is 80

Data credit: paper PMC12040169
